These entries and their values trace back to ChEMBL document CHEMBL1126865.

# Test system: Escherichia coli
# test-summary: In vitro antibacterial activity against Escherichia coli EC14
# Assay type: functional
measurement-type: MIC (µg/mL)
Kindly answer with a numeric value in µg/mL, unit omitted.

structure_smiles_string=CS(=O)(=O)C1=C(C(=O)O)N2C(=O)[C@@H](NC(=O)/C(=N/OCCCF)c3csc(N)n3)CN2C1 units_symbol=µg/mL reading=0.03
structure_smiles_string=C=CCCCO/N=C(/C(=O)N[C@H]1CN2CC(S(C)(=O)=O)=C(C(=O)O)N2C1=O)c1csc(N)n1 units_symbol=µg/mL reading=0.25
structure_smiles_string=CCCCS(=O)(=O)C1=C(C(=O)O)N2C(=O)[C@@H](NC(=O)/C(=N/OCCCl)c3csc(N)n3)CN2C1 units_symbol=µg/mL reading=0.5
structure_smiles_string=CCN1CCN(C(=O)N[C@@H](C(=O)N[C@H]2CN3CC(C#N)=C(C(=O)O)N3C2=O)c2ccccc2)C(=O)C1=O units_symbol=µg/mL reading=1

From here, focus on the item given below.
Which MIC value is on record for "CCCO/N=C(/C(=O)N[C@H]1CN2CC(S(=O)(=O)CCC)=C(C(=O)O)N2C1=O)c1csc(N)n1" ?
0.5

====

# Tested on: Haemophilus influenzae
# test-summary: In vitro antibacterial activity against Haemophilus influenza C.L
# Assay type: functional
measurement-type: MIC (µg/mL)
# number only, unit µg/mL dropped from output

Examples from the recorded data:
structure_smiles_string=CCCS(=O)(=O)C1=C(C(=O)O)N2C(=O)[C@@H](NC(=O)/C(=N/OCCCl)c3csc(N)n3)CN2C1 measurement_type=MIC units_symbol=µg/mL reading=0.125
structure_smiles_string=CC(C)(O/N=C(/C(=O)N[C@H]1CN2CC(S(C)(=O)=O)=C(C(=O)O)N2C1=O)c1csc(N)n1)C(=O)O measurement_type=MIC units_symbol=µg/mL reading=0.06
structure_smiles_string=N#CC1=C(C(=O)O)N2C(=O)[C@@H](NC(=O)CSc3ccccc3)CN2C1 measurement_type=MIC units_symbol=µg/mL reading=32
structure_smiles_string=C=CCCO/N=C(/C(=O)N[C@H]1CN2CC(S(C)(=O)=O)=C(C(=O)O)N2C1=O)c1csc(N)n1 measurement_type=MIC units_symbol=µg/mL reading=0.125
structure_smiles_string=CS(=O)(=O)C1=C(C(=O)O)N2C(=O)[C@@H](NC(=O)/C(=N/OCCCCCl)c3csc(N)n3)CN2C1 measurement_type=MIC units_symbol=µg/mL reading=1

Return reported MIC; argument: "CS(=O)(=O)C1=C(C(=O)O)N2C(=O)[C@@H](NC(=O)/C(=N/OCCBr)c3csc(N)n3)CN2C1"
0.125

Also "C#CCO/N=C(/C(=O)N[C@H]1CN2CC(S(C)(=O)=O)=C(C(=O)O)N2C1=O)c1csc(N)n1" , if possible.
0.25

Now the compound "Nc1nc(/C(=N\OCCCl)C(=O)N[C@H]2CN3CC(S(=O)(=O)Cc4ccccc4)=C(C(=O)O)N3C2=O)cs1"
0.5

# repeat for "CS(=O)(=O)C1=C(C(=O)O)N2C(=O)[C@@H](NC(=O)/C(=N/OCC(=O)O)c3csc(N)n3)CN2C1"
1

====

# System: Haemophilus influenzae
# test-summary: In vitro antibacterial activity against Haemophilus influenza C.L
# Assay type: functional
Each entry below carries its reported MIC.
# unit: mg/L | format: bare number

structure_smiles_string=C=CCO/N=C(/C(=O)N[C@H]1CN2CC(C#N)=C(C(=O)O)N2C1=O)c1csc(N)n1 reading=0.125
structure_smiles_string=N#CC1=C(C(=O)O)N2C(=O)[C@@H](NC(=O)/C(=N/OCCBr)c3csc(N)n3)CN2C1 reading=0.125

Could you now look at the following molecule, please?
Fill in the blank: the reported MIC of "CCCS(=O)(=O)C1=C(C(=O)O)N2C(=O)[C@@H](NC(=O)/C(=N/OCC(F)(F)F)c3csc(N)n3)CN2C1" is ____.
0.25

====

# Test system: Staphylococcus epidermidis
# test-summary: In vitro antibacterial activity against Staphylococcus epidermidis 222
# Type: functional
measurement-type: MIC

// below: answered compounds
compound=CS(=O)(=O)C1=C(C(=O)O)N2C(=O)[C@@H](NC(=O)/C(=N/OCC(=O)O)c3csc(N)n3)CN2C1 target_under_test="Staphylococcus epidermidis" reading="> 128 µg/mL"
compound="CO/N=C(\\C(=O)NC1CN2CC(S(C)(=O)=O)=C(C(=O)O)N2C1=O)c1csc(N)n1 (centres undefined)" target_under_test="Staphylococcus epidermidis" reading="64 µg/mL"

Looking for the measured MIC of "CC(C)=CCO/N=C(/C(=O)N[C@H]1CN2CC(S(C)(=O)=O)=C(C(=O)O)N2C1=O)c1csc(N)n1" , can you help?
8 µg/mL

Follow-up item: "C=CCO/N=C(/C(=O)N[C@H]1CN2CC(S(=O)(=O)CC=C)=C(C(=O)O)N2C1=O)c1csc(N)n1"
32 µg/mL

====

# System: Staphylococcus epidermidis
# test-summary: In vitro antibacterial activity against Staphylococcus epidermidis 222
# Assay type: functional
measurement-type: MIC (µg/mL)
Answer in µg/mL, number only, no unit symbol.

Observe how each entry below is paired with its result.
structure_smiles_string=CCCCO/N=C(/C(=O)N[C@H]1CN2CC(S(C)(=O)=O)=C(C(=O)O)N2C1=O)c1csc(N)n1 units_symbol=µg/mL reading=4
structure_smiles_string=CS(=O)(=O)C1=C(C(=O)O)N2C(=O)[C@@H](NC(=O)/C(=N/OCCF)c3csc(N)n3)CN2C1 units_symbol=µg/mL reading=16

Which measured MIC value corresponds to "C=CCO/N=C(/C(=O)N[C@H]1CN2CC(S(=O)(=O)CCC)=C(C(=O)O)N2C1=O)c1csc(N)n1" ?
32

Please give the result for "CCCO/N=C(/C(=O)N[C@H]1CN2CC(S(C)(=O)=O)=C(C(=O)O)N2C1=O)c1csc(N)n1" too.
16

Next entry: "CCCS(=O)(=O)C1=C(C(=O)O)N2C(=O)[C@@H](NC(=O)/C(=N/OCCF)c3csc(N)n3)CN2C1"
32

Follow-up item: "CCS(=O)(=O)C1=C(C(=O)O)N2C(=O)[C@@H](NC(=O)/C(=N/OCCCl)c3csc(N)n3)CN2C1"
32

Again, but for "C=CCCCO/N=C(/C(=O)N[C@H]1CN2CC(S(C)(=O)=O)=C(C(=O)O)N2C1=O)c1csc(N)n1"
8
